Kindly supply the reported pIC50 values for the records listed here.
Tested on: MRC5
test protocol: Cytotoxicity against human MRC5 cells after 72 hrs by MTS assay
Type: cell-based
measurement setup: MRC5, 72 h
Give only the number. pIC50 is defined as minus log10 of concentration in molar units.

Find pIC50 (MRC5) for the entry `CC(=O)OCC1=C(C)C[C@H]([C@@H](C)[C@H]2CC[C@H]3[C@@H]4C[C@H]5O[C@]56[C@@H](O)C=CC(=O)[C@]6(COC(C)=O)[C@H]4CC[C@]23C)OC1=O`
6.31

Find pIC50 (MRC5) for the entry `CC1=C(CO)C(=O)O[C@@H]([C@@H](C)[C@H]2CC[C@H]3[C@@H]4C[C@H]5O[C@]56[C@@H](O)C=CC(=O)[C@]6(CO)[C@H]4CC[C@]23C)C1`
5.28

Find pIC50 (MRC5) for the entry `CC(=O)OCC1=C(C)C[C@H]([C@@H](C)[C@H]2CC[C@H]3[C@@H]4C[C@H]5O[C@]56[C@@H](OC(C)=O)C=C(I)C(=O)[C@]6(COC(C)=O)[C@H]4CC[C@]23C)OC1=O`
6.32

Find pIC50 (MRC5) for the entry `CC(=O)OCC1=C(C)C[C@H]([C@@H](C)[C@H]2CC[C@H]3[C@@H]4C[C@H]5O[C@]56[C@@H]5C=CC(=O)[C@]6(COC(=O)CC/C=C/CCC(=O)O5)[C@H]4CC[C@]23C)OC1=O`
6.44

Source listed as ChEMBL document CHEMBL3091280.
